The origin of these recorded values is paper PMC8979346.

- System Name: hCA II (Homo sapiens)
As shown below, each of these compounds has a reported IC50 value.

{"Compound": "Cc1ccc(S(=O)(=O)NCc2ccccc2)cc1 [Compound 3f, N-benzyl-4-methylbenzenesulfonamide]", "IC50 [nM]": 1070}
{"Compound": "Cc1ccc(S(=O)(=O)NC(c2ccccc2)c2ccccc2)cc1 [Compound 3g, N-Benzhydryl-4-methylbenzenesulfonamide]", "IC50 [nM]": 863}
{"Compound": "COc1ccc(S(=O)(=O)NNc2ccccc2)cc1", "IC50 [nM]": 2760}
{"Compound": "COc1ccc(S(=O)(=O)Nc2ccccc2)cc1 [Compound 3k, 4-Methoxy-N-phenylbenzenesulfonamide]", "IC50 [nM]": 1740}
{"Compound": "Cc1ccc(S(=O)(=O)Nc2ccc(C)c(C)c2)cc1", "IC50 [nM]": 2500}

* * *

- System Name: hCA XII (Homo sapiens, UniProt O43570)
- Sequence (O43570 25-354): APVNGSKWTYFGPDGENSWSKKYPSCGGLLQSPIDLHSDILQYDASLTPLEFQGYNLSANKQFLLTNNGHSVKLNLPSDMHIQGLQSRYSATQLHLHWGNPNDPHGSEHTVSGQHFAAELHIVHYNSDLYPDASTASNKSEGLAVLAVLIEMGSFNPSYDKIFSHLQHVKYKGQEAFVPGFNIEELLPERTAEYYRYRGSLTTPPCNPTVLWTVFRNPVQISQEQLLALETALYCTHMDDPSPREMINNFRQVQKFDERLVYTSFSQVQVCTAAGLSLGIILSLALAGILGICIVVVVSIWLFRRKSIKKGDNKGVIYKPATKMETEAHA
pIC50: −log10 of the molar value.
Recorded Endpoint: pIC50

{"Compound": "COc1ccc(CCNS(=O)(=O)c2ccc(C)cc2)cc1OC [Compound 3l]", "System Name": "hCA XII (Homo sapiens, UniProt O43570)", "Result Number": 5.93}
{"Compound": "COc1ccc(S(=O)(=O)Nc2ccccc2)cc1 [Compound 3k, 4-Methoxy-N-phenylbenzenesulfonamide]", "System Name": "hCA XII (Homo sapiens, UniProt O43570)", "Result Number": 5.94}
{"Compound": "CCN(CC)c1ccc(NS(=O)(=O)c2ccc(C)cc2)cc1 [Compound 3e]", "System Name": "hCA XII (Homo sapiens, UniProt O43570)", "Result Number": 6.20}
{"Compound": "Cc1ccc(S(=O)(=O)NC(c2ccccc2)c2ccccc2)cc1 [Compound 3g, N-Benzhydryl-4-methylbenzenesulfonamide]", "System Name": "hCA XII (Homo sapiens, UniProt O43570)", "Result Number": 5.89}
{"Compound": "Cc1ccc(S(=O)(=O)NNc2ccccc2)cc1 [Compound 3h]", "System Name": "hCA XII (Homo sapiens, UniProt O43570)", "Result Number": 5.97}
{"Compound": "Cc1ccc(S(=O)(=O)NCc2ccccc2)cc1 [Compound 3f, N-benzyl-4-methylbenzenesulfonamide]", "System Name": "hCA XII (Homo sapiens, UniProt O43570)", "Result Number": 6.07}
{"Compound": "Cc1ccc(S(=O)(=O)Nc2ccc(C)c(C)c2)cc1 [Compound 3j]", "System Name": "hCA XII (Homo sapiens, UniProt O43570)", "Result Number": 5.95}
{"Compound": "Cc1ccc(S(=O)(=O)Nc2cc(C)ccc2C)cc1 [Compound 3b]", "System Name": "hCA XII (Homo sapiens, UniProt O43570)", "Result Number": 5.99}
{"Compound": "COc1ccc(S(=O)(=O)NC(c2ccccc2)c2ccccc2)cc1 [Compound 3m, N-Benzhydryl-4-methoxybenzenesulfonamide]", "System Name": "hCA XII (Homo sapiens, UniProt O43570)", "Result Number": 5.85}
{"Compound": "Cc1ccc(S(=O)(=O)Nc2c(C)cccc2C)cc1 [Compound 3c]", "System Name": "hCA XII (Homo sapiens, UniProt O43570)", "Result Number": 6.15}

* * *

What follows is a collection of IC50 values obtained with hCA II (Homo sapiens, UniProt P00918).

{"Molecule": "COc1ccc(S(=O)(=O)NC(c2ccccc2)c2ccccc2)cc1 [Compound 3m, N-Benzhydryl-4-methoxybenzenesulfonamide]", "IC50 / nM": 507}
{"Molecule": "Cc1ccc(S(=O)(=O)Nc2ccccc2)cc1 [Compound 3a, 4-Methyl-N-phenylbenzenesulfonamide]", "IC50 / nM": 1300}
{"Molecule": "Cc1ccc(S(=O)(=O)Nc2c(C)cccc2C)cc1", "IC50 / nM": 1550}
{"Molecule": "Cc1ccc(S(=O)(=O)NNc2ccccc2)cc1", "IC50 / nM": 520}
